- Assayed Target: ΔCTD_Reg1 (human Regnase-1 amino acids 1 to 546, FLAG tag on the N-terminal side, BirA recognition sequence … (human))
- Sequence (Q5D1E8 1-546, stated change not applied): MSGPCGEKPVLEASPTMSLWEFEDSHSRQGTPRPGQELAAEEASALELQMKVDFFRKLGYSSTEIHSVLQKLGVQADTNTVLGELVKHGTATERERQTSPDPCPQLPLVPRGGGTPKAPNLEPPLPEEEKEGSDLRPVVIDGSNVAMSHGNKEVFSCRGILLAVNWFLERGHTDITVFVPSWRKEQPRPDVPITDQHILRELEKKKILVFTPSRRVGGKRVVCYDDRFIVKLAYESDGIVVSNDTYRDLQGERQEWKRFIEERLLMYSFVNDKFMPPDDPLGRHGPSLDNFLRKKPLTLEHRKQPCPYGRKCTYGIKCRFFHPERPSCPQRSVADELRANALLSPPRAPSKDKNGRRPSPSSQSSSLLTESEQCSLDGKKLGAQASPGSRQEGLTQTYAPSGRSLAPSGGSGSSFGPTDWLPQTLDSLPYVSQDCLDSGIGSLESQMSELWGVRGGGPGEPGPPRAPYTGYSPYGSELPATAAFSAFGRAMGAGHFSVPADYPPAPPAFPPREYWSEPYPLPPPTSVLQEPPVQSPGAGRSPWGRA
- Experiment: cell-based or functional assay
Positions of bridges follow the written chain, without caps; N, C: chain ends. Non-standard residues stand in square brackets, D forms with d. No end group written: not given here. NMeA = CN[C@@H](C)C(=O)O; dNMeA = CN[C@H](C)C(=O)O
Quantity Name: IC50, phosphorylation by TBK1 (µM)

[NMeA]YIWDFFGDLD (lactam N-11) [PP4] :: 44.9

A. [NMeA]HSNAWYNIWD (lactam N-11) [PP5]
B. [NMeA]NFSNSWYNIWD (lactam N-12) [PP16]
C. [dNMeA]SKYWNSWYNIWD (lactam N-13) [PP8]
D. [NMeA]KFAQFRWIYPD (lactam N-12) [PP11]
E. [NMeA]NSWYINIWGHD (lactam N-12) [PP15]
# desc sort on IC50, phosphorylation by TBK1 across 5 binders // respond by listing labels in the order requested D, B, A, E, C

I. [NMeA]RFGVWSWIYPD (lactam N-12) [PP14]
II. [dNMeA]PNSSWFKIWD (lactam N-11) [PP6]
Lab note: check whether I or II has the lower measured IC50, phosphorylation by TBK1. Give the label under which the chosen entry appears. I
(I: 5.2 µM, II: 14.5 µM)

1. [dNMeA]KHASAWYRIWD (lactam N-12) [PP3]
2. [NMeA]DIWFDYWDWD (lactam N-11) [PP17]
Lab note: check whether 1 or 2 has the lower measured IC50, phosphorylation by TBK1. Give the label under which the chosen entry appears. 2

A. [NMeA]NYQSWYYRSIWD (lactam N-13) [PP10]
B. [NMeA]RYAVYQWIYPD (lactam N-12) [PP12]
C. [NMeA]VFYKIWYNWD (lactam N-11) [PP19]
# desc sort on IC50, phosphorylation by TBK1 across 3 binders // respond by listing labels in the order requested B, C, A

a. [dNMeA]PTSSWYKIWD (lactam N-11) [PP23]
b. [NMeA]RFRQWKWVYPD (lactam N-12) [PP13]
Could you kindly indicate whether a or b has the higher IC50, phosphorylation by TBK1 value? Give the label under which the chosen entry appears. a

This collection of values is drawn from patent US20220125891A1.
